Measured values drawn from the supplement of paper PMC10307832 for this set.

Reported relative viability by item:
Test system: PC-14
Test: relative viability (nuclei count vs DMSO), 5 days (fraction); higher = more cells survive
Details: first compound 0.253 µM

>  <compound>
COc1nc(C)cnc1NS(=O)(=O)c1cccnc1-c1ccc(-c2nnco2)cc1 [Zibotentan] + C[C@@H](Oc1cc(-c2cnn(C3CCNCC3)c2)cnc1N)c1c(Cl)ccc(F)c1Cl [Crizotinib] (partner 1 µM)

>  <relative viability>
0.882

$$$$
>  <compound>
COc1nc(C)cnc1NS(=O)(=O)c1cccnc1-c1ccc(-c2nnco2)cc1 [Zibotentan] + Nc1ncn([C@H]2C[C@H](O)[C@@H](CO)O2)c(=O)n1 [Decitabine] (partner 2 µM)

>  <relative viability>
0.198

$$$$
>  <compound>
O=c1cc(-c2cccc3c2Sc2ccccc2S3)oc(N2CCOCC2)c1 + COc1cccc2cc(-c3nc([C@H]4CC[C@H](C(=O)O)CC4)n4ncnc(N)c34)[nH]c12 [OSI-027] (partner 0.5 µM)

>  <relative viability>
1.07

$$$$

* * *

Form field: relative viability (one value per entry).
Tested on: COR-L 105
Assay: relative viability (nuclei count vs DMSO), 5 days (fraction); higher = more cells survive
Details: first compound 0.08 µM
propertyMeasured: relative viability

>  <compound>
O=c1cc(-c2cccc3c2Sc2ccccc2S3)oc(N2CCOCC2)c1 + CCNC(=O)c1noc(-c2cc(C(C)C)c(O)cc2O)c1-c1ccc(CN2CCOCC2)cc1 [Luminespib] (partner 0.01 µM)

>  <experimentalResult>
0.701

$$$$
>  <compound>
COc1nc(C)cnc1NS(=O)(=O)c1cccnc1-c1ccc(-c2nnco2)cc1 [Zibotentan] + COc1cccc2cc(-c3nc([C@H]4CC[C@H](C(=O)O)CC4)n4ncnc(N)c34)[nH]c12 [OSI-027] (partner 0.5 µM)

>  <experimentalResult>
0.822

$$$$
>  <compound>
COc1nc(C)cnc1NS(=O)(=O)c1cccnc1-c1ccc(-c2nnco2)cc1 [Zibotentan] + C[C@]1(O)C[C@@H](c2nc(-c3ccc4ccc(-c5ccccc5)nc4c3)c3c(N)nccn32)C1 [Linsitinib] (partner 1 µM)

>  <experimentalResult>
1.02

$$$$

* * *

We begin with a simple list: items and their reported relative viability.
Test system: LU99A
Experiment: relative viability (nuclei count vs DMSO), 5 days (fraction); higher = more cells survive
Conditions: first compound 0.01 µM
propertyMeasured: relative viability

>  <compound>
CCN(CC)CCCCNc1ncc2cc(-c3cc(OC)cc(OC)c3)c(NC(=O)NC(C)(C)C)nc2n1 + Cc1nc(NC(=O)N2CCC[C@H]2C(N)=O)sc1-c1ccnc(C(C)(C)C(F)(F)F)c1 [Alpelisib] (partner 2 µM)

>  <experimentalResult>
0.5

$$$$
>  <compound>
CCN(CC)CCCCNc1ncc2cc(-c3cc(OC)cc(OC)c3)c(NC(=O)NC(C)(C)C)nc2n1 + CC(=O)Nc1cccc(-n2c(=O)n(C3CC3)c(=O)c3c(Nc4ccc(I)cc4F)n(C)c(=O)c(C)c32)c1 [Trametinib] (partner 0.02 µM)

>  <experimentalResult>
0.593

$$$$
>  <compound>
CCN(CC)CCCCNc1ncc2cc(-c3cc(OC)cc(OC)c3)c(NC(=O)NC(C)(C)C)nc2n1 + Nc1ncn([C@H]2C[C@H](O)[C@@H](CO)O2)c(=O)n1 [Decitabine] (partner 2 µM)

>  <experimentalResult>
1.01

$$$$

* * *

Tested on: HOP-62
Assay: relative viability (nuclei count vs DMSO), 5 days (fraction); higher = more cells survive
Settings: first compound 0.6325 µM
# Lookup of reported relative viability keyed by entry

>  <compound>
COCC1(CO)C(=O)C2CCN1CC2 (stereo not drawn) [PRIMA-1MET] + NC(=O)Nc1cc(-c2cccc(F)c2)sc1C(=O)N[C@H]1CCCNC1 [AZD7762] (partner 0.2 µM)

>  <assaySystem>
HOP-62

>  <relative viability>
0.387

$$$$
>  <compound>
COCC1(CO)C(=O)C2CCN1CC2 (stereo not drawn) [PRIMA-1MET] + O=C(c1cc(Cc2n[nH]c(=O)c3ccccc23)ccc1F)N1CCN(C(=O)C2CC2)CC1 [Olaparib] (partner 8 µM)

>  <assaySystem>
HOP-62

>  <relative viability>
0.388

$$$$
>  <compound>
COCC1(CO)C(=O)C2CCN1CC2 (stereo not drawn) [PRIMA-1MET] + N=C(N)NC(=N)NCCc1ccccc1 [Phenformin] (partner 250 µM)

>  <assaySystem>
HOP-62

>  <relative viability>
0.686

$$$$

* * *

// relative viability lookup, one value per entry
Tested on: HCC-78
Assay: relative viability (nuclei count vs DMSO), 5 days (fraction); higher = more cells survive
Settings: first compound 0.03162 µM
propertyMeasured: relative viability

>  <molecule>
CCN(CC)CCCCNc1ncc2cc(-c3cc(OC)cc(OC)c3)c(NC(=O)NC(C)(C)C)nc2n1 + NC(=O)Nc1cc(-c2cccc(F)c2)sc1C(=O)N[C@H]1CCCNC1 [AZD7762] (partner 0.2 µM)

>  <assaySystem>
HCC-78

>  <propertyMeasured>
relative viability

>  <experimentalResult>
0.647

$$$$
>  <molecule>
O=c1cc(N2CCOCC2)oc2c(-c3cccc4c3sc3ccccc34)cccc12 + Nc1ncn([C@H]2C[C@H](O)[C@@H](CO)O2)c(=O)n1 [Decitabine] (partner 2 µM)

>  <assaySystem>
HCC-78

>  <propertyMeasured>
relative viability

>  <experimentalResult>
0.716

$$$$
>  <molecule>
O=c1cc(N2CCOCC2)oc2c(-c3cccc4c3sc3ccccc34)cccc12 + C[C@]1(O)C[C@@H](c2nc(-c3ccc4ccc(-c5ccccc5)nc4c3)c3c(N)nccn32)C1 [Linsitinib] (partner 1 µM)

>  <assaySystem>
HCC-78

>  <propertyMeasured>
relative viability

>  <experimentalResult>
0.525

$$$$
>  <molecule>
CCN(CC)CCCCNc1ncc2cc(-c3cc(OC)cc(OC)c3)c(NC(=O)NC(C)(C)C)nc2n1 + O=C(c1cc(Cc2n[nH]c(=O)c3ccccc23)ccc1F)N1CCN(C(=O)C2CC2)CC1 [Olaparib] (partner 8 µM)

>  <assaySystem>
HCC-78

>  <propertyMeasured>
relative viability

>  <experimentalResult>
0.782

$$$$
>  <molecule>
CCN(CC)CCCCNc1ncc2cc(-c3cc(OC)cc(OC)c3)c(NC(=O)NC(C)(C)C)nc2n1 + CC1(C)CCC(c2ccc(Cl)cc2)=C(CN2CCN(c3ccc(C(=O)NS(=O)(=O)c4ccc(N[C@H](CCN5CCOCC5)CSc5ccccc5)c(S(=O)(=O)C(F)(F)F)c4)cc3)CC2)C1 [Navitoclax] (partner 0.5 µM)

>  <assaySystem>
HCC-78

>  <propertyMeasured>
relative viability

>  <experimentalResult>
0.75

$$$$

* * *

Test system: NCI-H441
Assay: relative viability (nuclei count vs DMSO), 5 days (fraction); higher = more cells survive
Conditions: first compound 0.1 µM
Entries annotated with measured relative viability

>  <molecule>
O=c1cc(N2CCOCC2)oc2c(-c3cccc4c3sc3ccccc34)cccc12 + N=C(N)NC(=N)NCCc1ccccc1 [Phenformin] (partner 250 µM)

>  <relative viability>
0.861

$$$$
>  <molecule>
CCN(CC)CCCCNc1ncc2cc(-c3cc(OC)cc(OC)c3)c(NC(=O)NC(C)(C)C)nc2n1 + O=C(c1cc(Cc2n[nH]c(=O)c3ccccc23)ccc1F)N1CCN(C(=O)C2CC2)CC1 [Olaparib] (partner 8 µM)

>  <relative viability>
0.531

$$$$
>  <molecule>
CCN(CC)CCCCNc1ncc2cc(-c3cc(OC)cc(OC)c3)c(NC(=O)NC(C)(C)C)nc2n1 + O=C(CCCCCCC(=O)Nc1ccccc1)NO [Vorinostat] (partner 1 µM)

>  <relative viability>
0.811

$$$$

* * *

Tested on: HCC-366
Experiment: relative viability (nuclei count vs DMSO), 5 days (fraction); higher = more cells survive
Settings: first compound 0.3162 µM

>  <compound>
O=c1cc(N2CCOCC2)oc2c(-c3cccc4c3sc3ccccc34)cccc12 + N=C(N)NC(=N)NCCc1ccccc1 [Phenformin] (partner 250 µM)

>  <assaySystem>
HCC-366

>  <relative viability>
0.601

$$$$
>  <compound>
CCN(CC)CCCCNc1ncc2cc(-c3cc(OC)cc(OC)c3)c(NC(=O)NC(C)(C)C)nc2n1 + NC(=O)Nc1cc(-c2cccc(F)c2)sc1C(=O)N[C@H]1CCCNC1 [AZD7762] (partner 0.2 µM)

>  <assaySystem>
HCC-366

>  <relative viability>
0.289

$$$$
>  <compound>
CCN(CC)CCCCNc1ncc2cc(-c3cc(OC)cc(OC)c3)c(NC(=O)NC(C)(C)C)nc2n1 + Cc1nc(Nc2ncc(C(=O)Nc3c(C)cccc3Cl)s2)cc(N2CCN(CCO)CC2)n1 [Dasatinib] (partner 0.075 µM)

>  <assaySystem>
HCC-366

>  <relative viability>
0.659

$$$$
